Tested on: HUVEC
Assay summary: Cytotoxicity against HUVEC cells after 48 hrs by MTT assay
Assay type: cell-based
Experimental setup: Homo sapiens
Give measured pIC50 for each item. Keep answers brief.
Note: pIC50 values are expressed as the negative base-10 logarithm of concentration in M.

Memo: COc1ccc(-c2cc(NCCO)c3ccccc3n2)cc1 , reported pIC50: 4.13

Memo: COc1ccc(Nc2cc(-c3ccc(C)cc3)nc3ccccc23)cc1 , reported pIC50: 4.84

Memo: Cc1ccc(-c2cc(NCCN(C)C)c3ccccc3n2)cc1 , reported pIC50: 4.52

Memo: Cc1ccc(-c2cc(NCCCN3CCOCC3)c3ccccc3n2)cc1 , reported pIC50: 4.34

Memo: Cc1ccc(-c2cc(NCCCO)c3ccccc3n2)cc1 , reported pIC50: 4.20

Memo: CN(C)CCCNCc1ccc(-c2cc(=O)c3ccccc3n2C)cc1 , reported pIC50: 4.00

Memo: Clc1cc(-c2ccc(CNCCCN3CCOCC3)cc2)nc2ccccc12 , reported pIC50: 4.65

Memo: Cc1ccc(-c2cc(NCCO)c3ccccc3n2)cc1 , reported pIC50: 4.13
